- Tested on: Acinetobacter baumannii
- protocol_description: MIC, CLSI broth microdilution, Acinetobacter baumannii panel
- Type: cell-based
- measurement_setup: Acinetobacter baumannii, A. baumannii clinical strain 16 (resistant clinical isolate); read-out: MIC
readout_label: MIC

Take a look at these entries with their results.
1) NCC[C@H](O)C(=O)N[C@@H]1C[C@H](N)[C@@H](O[C@H]2O[C@H](CNCCO)[C@@H](O)C[C@H]2N)[C@H](O[C@@H]2O[C@H](CO)[C@@H](O[C@H]3O[C@@H](CN)[C@@H](O)[C@H](O)[C@H]3N)[C@H]2O)[C@H]1O [Compound 18]: 1 to 8 µg/mL
2) NCC[C@H](O)C(=O)N[C@@H]1C[C@H](N)[C@@H](O[C@H]2O[C@H](CN)[C@@H](O)[C@H](O)[C@H]2O)[C@H](O)[C@H]1O[C@H]1O[C@H](CO)[C@@H](O)[C@H](N)[C@H]1O [AMK, amikacin]: ≥ 32 µg/mL
3) NC[C@@H]1O[C@H](O[C@H]2[C@@H](O)[C@H](O[C@@H]3[C@@H](O)[C@H](NC(=O)[C@@H](O)CN)C[C@H](N)[C@H]3O[C@H]3O[C@H](CNCCO)[C@@H](O)C[C@H]3N)O[C@@H]2CO)[C@H](N)[C@@H](O)[C@@H]1O [Compound 20]: 1 to 8 µg/mL

stdin: Given the entry NC[C@H]1O[C@H](O[C@H]2[C@H](O)[C@@H](O[C@H]3O[C@H](CO)[C@@H](O)[C@H](N)[C@H]3O)[C@H](N)C[C@@H]2N)[C@H](N)C[C@@H]1O [TOB, tobramycin] , report its measured MIC.
stdout: 1 to 8 µg/mL
